Data provenance: ChEMBL document CHEMBL4699573

Test system: HEK293
measurementNotes: Modulation of recombinant human FGF141b (1 to 252 residues)-recombinant human Nav1.6 C-terminal tail (1763 to 1976 residues) protein-protein interaction expressed in HEK293 cells assessed as relative luminescence value at 50 uM measured at 2 mins interval for 20 mins by split-luciferase complementation assay relative to control
Assay type: cell-based
conditionLabel: filed as modulator, time min 2-20
Residues, ends and D or L forms follow the SMILES beside them. *: point of attachment. Adamantane1carbonyl = O=C(C12CC3CC(CC(C3)C1)C2)*; Pyrrolidide = C1CCN(*)C1; Cbz = O=C(OCc1ccccc1)*; OcHex = C1CCC(O*)CC1; X2 = C1O[C@@H]1CO*; OtBu = CC(C)(C)O*; OAll = C=CCO*; X1 = C#CCO*
Give Activity for every item shown.
Numbers only, in %.

C#CCOC(=O)[C@@H](NC(=O)[C@H](CCC(=O)OC(C)(C)C)NC(=O)[C@H](CC(C)C)NC(=O)[C@@H]1CCCN1C(=O)C12CC3CC(CC(C3)C1)C2)C(C)C (Adamantane1carbonyl-PLE(OtBu)V-X1)	5.1
COC(=O)[C@@H](NC(=O)[C@H](CCC(=O)OC(C)(C)C)NC(=O)[C@H](CC(C)C)NC(=O)[C@@H]1CCCN1C(=O)C12CC3CC(CC(C3)C1)C2)C(C)C (Adamantane1carbonyl-PLE(OtBu)V-OMe)	4.7
C=CCOC(=O)[C@@H](NC(=O)[C@H](CCC(=O)OC(C)(C)C)NC(=O)[C@H](CC(C)C)NC(=O)[C@@H]1CCCN1C(=O)C12CC3CC(CC(C3)C1)C2)C(C)C (Adamantane1carbonyl-PLE(OtBu)V-OAll)	5
CC(C)C[C@H](NC(=O)[C@@H]1CCCN1C(=O)C12CC3CC(CC(C3)C1)C2)C(=O)N[C@@H](CCC(=O)OC(C)(C)C)C(=O)N[C@H](C(=O)OC1CCCCC1)C(C)C (Adamantane1carbonyl-PLE(OtBu)V-OcHex)	43.4
CC(C)C[C@H](NC(=O)[C@@H]1CCCN1C(=O)C12CC3CC(CC(C3)C1)C2)C(=O)N[C@@H](CCC(=O)OC(C)(C)C)C(=O)N[C@H](C(=O)OC[C@@H]1CO1)C(C)C (Adamantane1carbonyl-PLE(OtBu)V-X2)	13.1
CC(C)C[C@H](NC(=O)[C@@H]1CCCN1C(=O)C12CC3CC(CC(C3)C1)C2)C(=O)N[C@@H](CCC(=O)OC(C)(C)C)C(=O)N[C@H](C(=O)OC(C)(C)C)C(C)C (Adamantane1carbonyl-PLE(OtBu)V-OtBu)	33.6

Record Activity for all entries; do not skip any.
1. COC(=O)[C@@H](NC(=O)[C@H](CCC(=O)OC(C)(C)C)NC(=O)[C@H](CC(C)C)NC(=O)[C@@H]1CCCN1C(=O)OCc1ccccc1)C(C)C (Cbz-PLE(OtBu)V-OMe)
2. C=CCOC(=O)[C@@H](NC(=O)[C@H](CCC(=O)OC(C)(C)C)NC(=O)[C@H](CC(C)C)NC(=O)[C@@H]1CCCN1C(=O)OCc1ccccc1)C(C)C (Cbz-PLE(OtBu)V-OAll)
3. CC(C)C[C@H](NC(=O)[C@@H]1CCCN1C(=O)OCc1ccccc1)C(=O)N[C@@H](CCC(=O)OC(C)(C)C)C(=O)N[C@H](C(=O)N1CCCC1)C(C)C (Cbz-PLE(OtBu)V-Pyrrolidide)

Reply:
1: 39.8; 2: 11.9; 3: 14

---

testTarget: Sodium channel protein type 8 subunit alpha (Homo sapiens, UniProt Q9UQD0)
Sequence (Q9UQD0 whole entry, the tested form may be a part): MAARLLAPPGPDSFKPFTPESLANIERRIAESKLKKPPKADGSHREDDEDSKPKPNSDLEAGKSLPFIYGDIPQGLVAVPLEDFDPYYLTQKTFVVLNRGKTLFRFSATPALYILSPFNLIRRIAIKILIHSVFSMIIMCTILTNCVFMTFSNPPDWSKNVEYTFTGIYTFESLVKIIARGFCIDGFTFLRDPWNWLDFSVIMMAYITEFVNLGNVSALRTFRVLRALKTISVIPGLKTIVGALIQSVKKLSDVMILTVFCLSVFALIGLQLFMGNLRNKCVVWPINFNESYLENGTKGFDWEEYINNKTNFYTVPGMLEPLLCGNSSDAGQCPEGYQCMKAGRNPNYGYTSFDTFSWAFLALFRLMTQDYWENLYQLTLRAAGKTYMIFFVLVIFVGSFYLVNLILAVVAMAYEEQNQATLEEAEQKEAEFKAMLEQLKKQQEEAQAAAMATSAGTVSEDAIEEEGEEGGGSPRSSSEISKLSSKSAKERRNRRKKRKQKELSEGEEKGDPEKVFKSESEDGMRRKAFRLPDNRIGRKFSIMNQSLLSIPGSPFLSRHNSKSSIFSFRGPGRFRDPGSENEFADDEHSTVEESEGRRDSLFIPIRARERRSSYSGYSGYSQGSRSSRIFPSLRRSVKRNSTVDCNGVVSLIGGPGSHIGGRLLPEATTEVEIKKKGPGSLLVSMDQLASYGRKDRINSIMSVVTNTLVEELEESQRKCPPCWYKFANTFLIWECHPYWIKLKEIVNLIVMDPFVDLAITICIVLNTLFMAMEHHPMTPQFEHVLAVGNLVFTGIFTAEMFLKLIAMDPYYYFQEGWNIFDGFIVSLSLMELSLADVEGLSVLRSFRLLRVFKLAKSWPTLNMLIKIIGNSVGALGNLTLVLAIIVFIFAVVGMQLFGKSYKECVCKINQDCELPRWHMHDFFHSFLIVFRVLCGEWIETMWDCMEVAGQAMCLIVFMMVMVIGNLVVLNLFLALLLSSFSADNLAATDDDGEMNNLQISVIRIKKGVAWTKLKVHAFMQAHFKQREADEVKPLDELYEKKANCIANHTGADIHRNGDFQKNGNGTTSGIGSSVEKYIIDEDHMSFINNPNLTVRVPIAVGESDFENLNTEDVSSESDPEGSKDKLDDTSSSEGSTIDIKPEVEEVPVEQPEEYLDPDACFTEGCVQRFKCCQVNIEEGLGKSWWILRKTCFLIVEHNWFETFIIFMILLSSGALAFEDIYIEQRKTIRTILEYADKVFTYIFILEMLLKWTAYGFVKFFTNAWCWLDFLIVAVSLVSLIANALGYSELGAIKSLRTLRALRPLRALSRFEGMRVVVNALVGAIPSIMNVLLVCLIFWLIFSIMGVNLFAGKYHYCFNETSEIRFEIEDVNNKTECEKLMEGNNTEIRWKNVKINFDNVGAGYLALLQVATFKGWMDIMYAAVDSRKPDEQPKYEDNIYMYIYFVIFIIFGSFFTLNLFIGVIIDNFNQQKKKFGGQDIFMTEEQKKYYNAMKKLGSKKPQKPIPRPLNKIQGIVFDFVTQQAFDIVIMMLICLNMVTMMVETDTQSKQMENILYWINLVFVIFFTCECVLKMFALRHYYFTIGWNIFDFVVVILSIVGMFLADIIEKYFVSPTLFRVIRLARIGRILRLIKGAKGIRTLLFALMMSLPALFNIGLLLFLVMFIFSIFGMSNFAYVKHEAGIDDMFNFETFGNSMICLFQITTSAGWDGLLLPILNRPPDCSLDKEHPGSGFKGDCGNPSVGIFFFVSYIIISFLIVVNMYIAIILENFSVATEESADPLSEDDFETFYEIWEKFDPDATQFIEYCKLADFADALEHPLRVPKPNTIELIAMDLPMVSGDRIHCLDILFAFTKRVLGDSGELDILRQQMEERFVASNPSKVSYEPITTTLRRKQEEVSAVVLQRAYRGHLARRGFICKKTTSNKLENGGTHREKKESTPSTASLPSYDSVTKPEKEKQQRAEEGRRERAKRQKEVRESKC
measurementNotes: Binding affinity to human recombinant Nav1.6 C-terminal domain expressed in Escherichia coli BL21 assessed as dissociation constant by SPR analysis
Residues, ends and D or L forms follow the SMILES beside them. *: point of attachment. Adamantane1carbonyl = O=C(C12CC3CC(CC(C3)C1)C2)*; Cbz = O=C(OCc1ccccc1)*; OtBu = CC(C)(C)O*; OAll = C=CCO*
measurementKind: Kd

// known answers, use as guide
CC(C)C[C@H](NC(=O)[C@@H]1CCCN1C(=O)C12CC3CC(CC(C3)C1)C2)C(=O)N[C@@H](CCC(=O)OC(C)(C)C)C(=O)N[C@H](C(=O)OC(C)(C)C)C(C)C (Adamantane1carbonyl-PLE(OtBu)V-OtBu)	> 200 µM
COC(=O)[C@@H](NC(=O)[C@H](CCC(=O)OC(C)(C)C)NC(=O)[C@H](CC(C)C)NC(=O)[C@@H]1CCCN1C(=O)C12CC3CC(CC(C3)C1)C2)C(C)C (Adamantane1carbonyl-PLE(OtBu)V-OMe)	16.4 µM
C=CCOC(=O)[C@@H](NC(=O)[C@H](CCC(=O)OC(C)(C)C)NC(=O)[C@H](CC(C)C)NC(=O)[C@@H]1CCCN1C(=O)OCc1ccccc1)C(C)C (Cbz-PLE(OtBu)V-OAll)	> 200 µM

Please find the next compound below.
Query: Recorded Kd for C=CCOC(=O)[C@@H](NC(=O)[C@H](CCC(=O)OC(C)(C)C)NC(=O)[C@H](CC(C)C)NC(=O)[C@@H]1CCCN1C(=O)C12CC3CC(CC(C3)C1)C2)C(C)C (Adamantane1carbonyl-PLE(OtBu)V-OAll) with Sodium channel protein type 8 subunit alpha (Homo sapiens, UniProt Q9UQD0), please?
Reply: > 200 µM

---

Give measured K for each item. Keep answers brief.
testTarget: Fibroblast growth factor 14 (Homo sapiens) (UniProt Q92915)
Sequence (Q92915 whole entry): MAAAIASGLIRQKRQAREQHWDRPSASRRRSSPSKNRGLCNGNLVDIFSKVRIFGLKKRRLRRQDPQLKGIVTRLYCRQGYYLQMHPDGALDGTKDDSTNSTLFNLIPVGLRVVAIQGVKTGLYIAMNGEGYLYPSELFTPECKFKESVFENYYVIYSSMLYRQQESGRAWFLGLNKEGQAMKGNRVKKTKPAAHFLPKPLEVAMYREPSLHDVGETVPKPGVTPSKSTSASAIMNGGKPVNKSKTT
measurementNotes: Binding affinity to human recombinant FGF14 expressed in Escherichia coli BL21 assessed as dissociation rate constant by SPR analysis
conditionLabel: filed as modulator
Residues, ends and D or L forms follow the SMILES beside them. *: point of attachment. Adamantane1carbonyl = O=C(C12CC3CC(CC(C3)C1)C2)*; Pyrrolidide = C1CCN(*)C1; Cbz = O=C(OCc1ccccc1)*; OcHex = C1CCC(O*)CC1; OtBu = CC(C)(C)O*; OAll = C=CCO*; OPr = CCCO*

CCOC(=O)[C@@H](NC(=O)[C@H](CCC(=O)OC(C)(C)C)NC(=O)[C@H](CC(C)C)NC(=O)[C@@H]1CCCN1C(=O)C12CC3CC(CC(C3)C1)C2)C(C)C (Adamantane1carbonyl-PLE(OtBu)V-OEt)	2.05 10^-2/s
CC(C)C[C@H](NC(=O)[C@@H]1CCCN1C(=O)C12CC3CC(CC(C3)C1)C2)C(=O)N[C@@H](CCC(=O)OC(C)(C)C)C(=O)N[C@H](C(=O)OC1CCCCC1)C(C)C (Adamantane1carbonyl-PLE(OtBu)V-OcHex)	1.39 10^-2/s

I'm hoping you can list K for every molecule here, please.
1. C=CCOC(=O)[C@@H](NC(=O)[C@H](CCC(=O)OC(C)(C)C)NC(=O)[C@H](CC(C)C)NC(=O)[C@@H]1CCCN1C(=O)C12CC3CC(CC(C3)C1)C2)C(C)C (Adamantane1carbonyl-PLE(OtBu)V-OAll)
2. CC(C)C[C@H](NC(=O)[C@@H]1CCCN1C(=O)OCc1ccccc1)C(=O)N[C@@H](CCC(=O)OC(C)(C)C)C(=O)N[C@H](C(=O)N1CCCC1)C(C)C (Cbz-PLE(OtBu)V-Pyrrolidide)
3. COC(=O)[C@@H](NC(=O)[C@H](CCC(=O)OC(C)(C)C)NC(=O)[C@H](CC(C)C)NC(=O)[C@@H]1CCCN1C(=O)C12CC3CC(CC(C3)C1)C2)C(C)C (Adamantane1carbonyl-PLE(OtBu)V-OMe)
4. CCCOC(=O)[C@@H](NC(=O)[C@H](CCC(=O)OC(C)(C)C)NC(=O)[C@H](CC(C)C)NC(=O)[C@@H]1CCCN1C(=O)C12CC3CC(CC(C3)C1)C2)C(C)C (Adamantane1carbonyl-PLE(OtBu)V-OPr)
5. CC(C)C[C@H](NC(=O)[C@@H]1CCCN1C(=O)C12CC3CC(CC(C3)C1)C2)C(=O)N[C@@H](CCC(=O)OC(C)(C)C)C(=O)N[C@H](C(=O)OC(C)(C)C)C(C)C (Adamantane1carbonyl-PLE(OtBu)V-OtBu)

Reply:
1. 9.32 10^-3/s
2. 9.91 10^-4/s
3. 9.33 10^-3/s
4. 2.04 10^-2/s
5. 5.8 10^-3/s

---

testTarget: Fibroblast growth factor 14 (Homo sapiens) (UniProt Q92915)
measurementNotes: Binding affinity to human recombinant FGF14 expressed in Escherichia coli BL21 assessed as association rate constant by SPR analysis
conditionLabel: filed as modulator
Residues, ends and D or L forms follow the SMILES beside them. *: point of attachment. Adamantane1carbonyl = O=C(C12CC3CC(CC(C3)C1)C2)*; OtBu = CC(C)(C)O*; OAll = C=CCO*; X1 = C#CCO*
measurementKind: K

C=CCOC(=O)[C@@H](NC(=O)[C@H](CCC(=O)OC(C)(C)C)NC(=O)[C@H](CC(C)C)NC(=O)[C@@H]1CCCN1C(=O)C12CC3CC(CC(C3)C1)C2)C(C)C (Adamantane1carbonyl-PLE(OtBu)V-OAll)	1.79 10^4/M/s
C#CCOC(=O)[C@@H](NC(=O)[C@H](CCC(=O)OC(C)(C)C)NC(=O)[C@H](CC(C)C)NC(=O)[C@@H]1CCCN1C(=O)C12CC3CC(CC(C3)C1)C2)C(C)C (Adamantane1carbonyl-PLE(OtBu)V-X1)	2.58 10^4/M/s
CC(C)C[C@H](NC(=O)[C@@H]1CCCN1C(=O)C12CC3CC(CC(C3)C1)C2)C(=O)N[C@@H](CCC(=O)OC(C)(C)C)C(=O)N[C@H](C(=O)OC(C)(C)C)C(C)C (Adamantane1carbonyl-PLE(OtBu)V-OtBu)	1.62 10^3/M/s

For the next question, use this compound.
Query: Recorded K for COC(=O)[C@@H](NC(=O)[C@H](CCC(=O)OC(C)(C)C)NC(=O)[C@H](CC(C)C)NC(=O)[C@@H]1CCCN1C(=O)C12CC3CC(CC(C3)C1)C2)C(C)C (Adamantane1carbonyl-PLE(OtBu)V-OMe) , please?
Reply: 4.66 10^3/M/s
